Kindly state Population Tubulin-Different-Phenotype (%) for each of the entries shown.
System: HEK-293T
Assay Protocol: Multiplex assay against HEK293T
Assay type: toxicity, cell-based
Measurement Setup: human, 12 h, 1 µM, compound concentration 1 uM, replicate 1
A complete answer gives the number followed by the unit.

Which Population Tubulin-Different-Phenotype (%) reading was recorded for the molecule COCCCN1CCC(NC(=O)c2cc(Cl)c(N)c3c2OCC3)CC1 [PRUCALOPRIDE] ?
21%

Which Population Tubulin-Different-Phenotype (%) reading was recorded for the molecule `COC(c1ccccc1)(c1ccccc1)[C@H](Oc1nc(C)cc(C)n1)C(=O)O` ?
30%

Which Population Tubulin-Different-Phenotype (%) reading was recorded for the molecule `COc1cc(Nc2ncc3c(n2)-c2ccc(Cl)cc2C(c2c(F)cccc2OC)=NC3)ccc1C(=O)O` ?
46%

Which Population Tubulin-Different-Phenotype (%) reading was recorded for the molecule `Nc1nc(-c2ccco2)c2cnn(Cc3ccccc3F)c2n1` ?
41%

Which Population Tubulin-Different-Phenotype (%) reading was recorded for the molecule `C[C@H](NC(=O)CNC(=O)c1cccc(Cl)c1)c1ccccc1` ?
29%

Which Population Tubulin-Different-Phenotype (%) reading was recorded for the molecule `S=C(NCCCc1c[nH]cn1)NCCCN(Cc1ccc(Cl)c(Cl)c1)c1ccc(Br)cn1` ?
36%

Which Population Tubulin-Different-Phenotype (%) reading was recorded for the molecule `N[C@](CC1c2ccccc2Oc2ccccc21)(C(=O)O)[C@H]1C[C@@H]1C(=O)O` ?
27%

Which Population Tubulin-Different-Phenotype (%) reading was recorded for the molecule `Cc1cc(-c2ccc3c(c2)CC[C@H]3N2CC3(CCN(C(=O)Cc4cn5cc(C)sc5n4)CC3)C2)ncn1` ?
25%

Which Population Tubulin-Different-Phenotype (%) reading was recorded for the molecule `CSc1nc(NC2CCCC2)c([N+](=O)[O-])c(NC2CCCC2)n1` ?
30%

Which Population Tubulin-Different-Phenotype (%) reading was recorded for the molecule Cl.Cl.OCCOCCN1CCN(C(c2ccccc2)c2ccc(Cl)cc2)CC1 (stereo not given) [HYDROXYZINE HYDROCHLORIDE] ?
24%

====

System: U2OS
Assay Protocol: Multiplex assay against U2OS
Assay type: toxicity, cell-based
Measurement Setup: human, 24 h, 10 µM, compound concentration 10 uM, replicate 1
Value Type: Population Fragmented Nuclei (%)

For the record `N[C@](CC1c2ccccc2Oc2ccccc21)(C(=O)O)[C@H]1C[C@@H]1C(=O)O` , what value of Population Fragmented Nuclei (%) is listed for U2OS?
13%

For the record `OCCCNc1cc(-c2ccnc(Nc3cccc(Cl)c3)n2)ccn1` , what value of Population Fragmented Nuclei (%) is listed for U2OS?
37%

For the record `C=CCN1C[C@H](C(=O)N(CCCN(C)C)C(=O)NCC)C[C@@H]2c3cccc4[nH]cc(c34)C[C@H]21` , what value of Population Fragmented Nuclei (%) is listed for U2OS?
33%

For the record `Cc1cc(-c2ccc3c(c2)CC[C@H]3N2CC3(CCN(C(=O)Cc4cn5cc(C)sc5n4)CC3)C2)ncn1` , what value of Population Fragmented Nuclei (%) is listed for U2OS?
18%

====

Test system: U2OS
Assay Protocol: Multiplex assay against U2OS
Format: toxicity, cell-based
Measurement Setup: human, 24 h, 1 µM, compound concentration 1 uM, replicate 1
Value Type: Population Mitochondria Different-Phenotype (%)
Could you give me the number in %? Just the number is fine.

Which Population Mitochondria Different-Phenotype (%) reading was recorded for the molecule `CN1CCC(C(=O)c2cccc(NC(=O)c3c(F)cc(F)cc3F)n2)CC1` ?
3

Which Population Mitochondria Different-Phenotype (%) reading was recorded for the molecule `Cc1cc(NC(=O)NCCN2CCC(O)(Cc3ccccc3)CC2)c2ccccc2n1` ?
3

Which Population Mitochondria Different-Phenotype (%) reading was recorded for the molecule `COCCn1c(C)c(C)s/c1=N\C(=O)C1C(C)(C)C1(C)C` ?
3

Which Population Mitochondria Different-Phenotype (%) reading was recorded for the molecule O=C(NCCNCC(O)COc1ccc(O)cc1)N1CCOCC1.O=C(NCCNCC(O)COc1ccc(O)cc1)N1CCOCC1.O=C(O)/C=C/C(=O)O (stereo not drawn) [XAMOTEROL FUMARATE] ?
0

Which Population Mitochondria Different-Phenotype (%) reading was recorded for the molecule `COc1cc(OC2CCN(C(C)=O)CC2)ccc1C(=O)N1CCC(N2C(=O)OCc3ccccc32)CC1` ?
2

Which Population Mitochondria Different-Phenotype (%) reading was recorded for the molecule CN1C[C@H](C(=O)N[C@]2(C)O[C@@]3(O)[C@@H]4CCCN4C(=O)[C@H](Cc4ccccc4)N3C2=O)C[C@@H]2c3cccc4[nH]cc(c34)C[C@H]21.CS(=O)(=O)O [DIHYDROERGOTAMINE MESYLATE] ?
0

Which Population Mitochondria Different-Phenotype (%) reading was recorded for the molecule `CN(C)C(=O)Cn1cc(-c2ccc(-c3nnc4ccccn34)cc2)cn1` ?
2

Which Population Mitochondria Different-Phenotype (%) reading was recorded for the molecule `C[C@H](NC(=O)CNC(=O)c1cccc(Cl)c1)c1ccccc1` ?
2

Which Population Mitochondria Different-Phenotype (%) reading was recorded for the molecule `Cn1cc(C(=O)OCC2CCN(CCNS(C)(=O)=O)CC2)c2ccccc21` ?
2

Which Population Mitochondria Different-Phenotype (%) reading was recorded for the molecule `COc1cc(C(=O)N2CC[C@@H](O)[C@@H](N)C2)cc2nc(-c3cc4ccccc4n3CC3CC3)n(C)c12.Cl` ?
14

Which Population Mitochondria Different-Phenotype (%) reading was recorded for the molecule `O=c1ccc2ccc(OCCCCN3CCN(c4cccc5sccc45)CC3)cc2[nH]1` ?
22

Which Population Mitochondria Different-Phenotype (%) reading was recorded for the molecule `CC(C)(O)C(=O)N1CCN(c2ccc(C(F)(F)F)c(C3=C(c4c[nH]c5ccccc45)C(=O)NC3=O)c2)CC1` ?
3

Which Population Mitochondria Different-Phenotype (%) reading was recorded for the molecule `C[C@@H]1CC(=O)Nc2cccc(-c3ccc4c(c3)c(-c3cnn(C)c3)nn4C)c2N1` ?
2

Which Population Mitochondria Different-Phenotype (%) reading was recorded for the molecule `C=CCN1C[C@H](C(=O)N(CCCN(C)C)C(=O)NCC)C[C@@H]2c3cccc4[nH]cc(c34)C[C@H]21` ?
1

Which Population Mitochondria Different-Phenotype (%) reading was recorded for the molecule `CSc1nc(NC2CCCC2)c([N+](=O)[O-])c(NC2CCCC2)n1` ?
1

Which Population Mitochondria Different-Phenotype (%) reading was recorded for the molecule COc1cc2nc(N3CCN(C(=O)c4ccco4)CC3)nc(N)c2cc1OC.Cl [PRAZOSIN HYDROCHLORIDE] ?
2

Which Population Mitochondria Different-Phenotype (%) reading was recorded for the molecule `Cc1cc(-c2ccc3c(c2)CC[C@H]3N2CC3(CCN(C(=O)Cc4cn5cc(C)sc5n4)CC3)C2)ncn1` ?
3

Which Population Mitochondria Different-Phenotype (%) reading was recorded for the molecule `COc1cc2nc(N3CCN(C(=O)COc4c(OC)cccc4C(C)C)CC3)nc(N)c2cc1OC.Cl.Cl` ?
8

====

Tested on: HEK-293T
Assay Protocol: Multiplex assay against HEK293T
Type: toxicity, cell-based
Measurement Setup: human, 48 h, 10 µM, compound concentration 10 uM, replicate 2
Kindly state Population Hoechst High Intensity Objects (%) for each of the entries shown.
Could you give me the number in %? Just the number is fine.

Which Population Hoechst High Intensity Objects (%) reading was recorded for the compound `Cc1nn(C)c2nc(NNC(=O)Nc3cc(Cl)nc(Cl)c3)cc(C(C)C)c12` ?
4

Which Population Hoechst High Intensity Objects (%) reading was recorded for the compound `COCCn1c(C)c(C)s/c1=N\C(=O)C1C(C)(C)C1(C)C` ?
4

Which Population Hoechst High Intensity Objects (%) reading was recorded for the compound `CCc1nn2c(C)cc(C)nc2c1Cc1ccc(-c2nnc(C3CCNCC3)o2)cc1` ?
3

Which Population Hoechst High Intensity Objects (%) reading was recorded for the compound Nc1nc(CC(=O)Nc2ccc(CCNC[C@H](O)c3ccccc3)cc2)cs1 [MIRABEGRON] ?
2

Which Population Hoechst High Intensity Objects (%) reading was recorded for the compound `Cc1cc(=O)n(C)c2cc(N3C(=O)CC[C@H](NS(=O)(=O)CC(C)C)[C@H]3c3ccc(Cl)cc3)ccc12` ?
19

Which Population Hoechst High Intensity Objects (%) reading was recorded for the compound CC(C)(C)c1ccc(CSc2cnn(C(C)(C)C)c(=O)c2Cl)cc1 [PYRIDABEN] ?
14

Which Population Hoechst High Intensity Objects (%) reading was recorded for the compound COC(c1ccccc1)(c1ccccc1)[C@H](Oc1nc(C)cc(C)n1)C(=O)O [AMBRISENTAN] ?
7

Which Population Hoechst High Intensity Objects (%) reading was recorded for the compound CCCCCCNC(=O)Nc1ccc(S(=O)(=O)Nc2ccc(CCNC[C@H](O)COc3ccc(O)cc3)cc2)cc1 [L-755507] ?
8

Which Population Hoechst High Intensity Objects (%) reading was recorded for the compound CN(C)C/C=C/C(=O)Nc1ccc(C(=O)N2CCCC(Nc3ncc(Cl)c(-c4c[nH]c5ccccc45)n3)C2)cc1 (centres undefined) ?
58

Which Population Hoechst High Intensity Objects (%) reading was recorded for the compound CC(C)C[C@H](CO)Nc1nc(S[C@@H](C)c2ccccc2)nc2nc(N)sc12 [AZD-8797] ?
6

Which Population Hoechst High Intensity Objects (%) reading was recorded for the compound `CN(C)C(=O)Cn1cc(-c2ccc(-c3nnc4ccccn34)cc2)cn1` ?
2

Which Population Hoechst High Intensity Objects (%) reading was recorded for the compound CSc1nc(NC2CCCC2)c([N+](=O)[O-])c(NC2CCCC2)n1 [GS-39783] ?
5

Which Population Hoechst High Intensity Objects (%) reading was recorded for the compound `N[C@](CC1c2ccccc2Oc2ccccc21)(C(=O)O)[C@H]1C[C@@H]1C(=O)O` ?
4

Which Population Hoechst High Intensity Objects (%) reading was recorded for the compound Cc1cc(NC(=O)NCCN2CCC(O)(Cc3ccccc3)CC2)c2ccccc2n1 [PALOSURAN] ?
4

Which Population Hoechst High Intensity Objects (%) reading was recorded for the compound CN1C[C@H](C(=O)N[C@]2(C)O[C@@]3(O)[C@@H]4CCCN4C(=O)[C@H](Cc4ccccc4)N3C2=O)C[C@@H]2c3cccc4[nH]cc(c34)C[C@H]21.CS(=O)(=O)O [DIHYDROERGOTAMINE MESYLATE] ?
1

Which Population Hoechst High Intensity Objects (%) reading was recorded for the compound `Cn1cc(C(=O)OCC2CCN(CCNS(C)(=O)=O)CC2)c2ccccc21` ?
4

Which Population Hoechst High Intensity Objects (%) reading was recorded for the compound O=C(NCCNCC(O)COc1ccc(O)cc1)N1CCOCC1.O=C(NCCNCC(O)COc1ccc(O)cc1)N1CCOCC1.O=C(O)/C=C/C(=O)O (centres undefined) [XAMOTEROL FUMARATE] ?
2

Which Population Hoechst High Intensity Objects (%) reading was recorded for the compound `C[C@H](NC(=O)CNC(=O)c1cccc(Cl)c1)c1ccccc1` ?
2

Which Population Hoechst High Intensity Objects (%) reading was recorded for the compound `COc1cc(OC2CCN(C(C)=O)CC2)ccc1C(=O)N1CCC(N2C(=O)OCc3ccccc32)CC1` ?
3

Which Population Hoechst High Intensity Objects (%) reading was recorded for the compound COCCCN1CCC(NC(=O)c2cc(Cl)c(N)c3c2OCC3)CC1 [PRUCALOPRIDE] ?
3

Which Population Hoechst High Intensity Objects (%) reading was recorded for the compound CCn1c(-c2nc3cc(C(=O)N4CCCC(N)C4)ccc3n2C)cc2ccccc21.Cl (centres undefined) ?
8

Which Population Hoechst High Intensity Objects (%) reading was recorded for the compound COc1ccc2c(c1OCc1ccccc1)C[C@@H](C(=O)O)N(C(=O)C(c1ccccc1)c1ccccc1)C2 [OLODANRIGAN] ?
6

Which Population Hoechst High Intensity Objects (%) reading was recorded for the compound COc1ccc2[nH]c(I)c(CCNC(C)=O)c2c1 [IODOMELATONIN] ?
2

Which Population Hoechst High Intensity Objects (%) reading was recorded for the compound O=c1ccc2ccc(OCCCCN3CCN(c4cccc5sccc45)CC3)cc2[nH]1 [BREXPIPRAZOLE] ?
52
